# Tested on: KRAS PDC tumor spheroids (HUVEC+MSC), viability
# procedureDetails: Anticancer human tumor 254851-301-R-J1-PDC patient-derived colon carcinoma cell line growth inhibition [KRAS2]
# conditionInfo: second compound 10 µM; first compound 1 µM; hits give low values
Grouping rule (viability, T/C): A (below 20%), B (20% to below 30%), C (30% or more)

Record excerpt, results attached:
[[record]]
compound = "O=C(c1cc(Cc2n[nH]c(=O)c3ccccc23)ccc1F)N1CCN(C(=O)C2CC2)CC1 + CNCc1ccccc1-c1csc(C(C)Nc2nc(C)nc3cc(OC)c(OC)cc23)c1"
discretelabel = "A"

[[record]]
compound = "COc1cc(Nc2ncc3c(n2)-c2ccc(Cl)cc2C(c2c(F)cccc2OC)=NC3)ccc1C(=O)O + COc1cc2nc(C)nc(NC(C)c3cc(N)cc(C(F)(F)F)c3)c2cc1OC1CCOC1"
discretelabel = "B"


Could you now consider this next compound?
Textbook exercise: identify the category of the compound given here, COC(=O)c1ccc2c(C(=Nc3ccc(N(C)C(=O)CN4CCN(C)CC4)cc3)c3ccccc3)c(O)[nH]c2c1 + CC1OCC2(CCN(c3cnc(Sc4ccnc(N)c4Cl)c(N)n3)CC2)C1N , according to its measured value.
C

---

# Tested on: KRAS PDC tumor spheroids (HUVEC+MSC), viability
# procedureDetails: Anticancer human tumor 254851-301-R-J1-PDC cell line growth inhibition [KRAS2];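 also: spheroids exposed to compounds for seven days before readout; 100% = DMSO vehicle control luminescence of the spheroids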
# conditionInfo: second compound 0.1 µM; first compound 1 µM; hits give low values
Listing of recorded viability, T/C by entry.
Form entry: value (%) — number only.

Below are worked cases with known answers.
[[record]]
compound = "COc1cc2nccc(Oc3ccc(NC(=O)C4(C(=O)Nc5ccc(F)cc5)CC4)cc3)c2cc1OC + COc1cc2nc(C)nc(NC(C)c3cc(N)cc(C(F)(F)F)c3)c2cc1OC1CCOC1"
targetdesc = "KRAS PDC tumor spheroids (HUVEC+MSC), viability"
datavalue = 99

[[record]]
compound = "CC(C)NCC(C(=O)N1CCN(c2ncnc3c2C(C)CC3O)CC1)c1ccc(Cl)cc1 (stereo not given) + C=CC(=O)N1CCN(c2nc(OCC3CCCN3C)nc3c2CCN(c2cccc4cccc(C)c24)C3)CC1CC#N"
targetdesc = "KRAS PDC tumor spheroids (HUVEC+MSC), viability"
datavalue = 77.1

[[record]]
compound = "COc1cc2nccc(Oc3ccc(NC(=O)C4(C(=O)Nc5ccc(F)cc5)CC4)cc3)c2cc1OC + CC1OCC2(CCN(c3cnc(Sc4ccnc(N)c4Cl)c(N)n3)CC2)C1N"
targetdesc = "KRAS PDC tumor spheroids (HUVEC+MSC), viability"
datavalue = 112

[[record]]
compound = "CC1(C)CCC(CN2CCN(c3ccc(C(=O)NS(=O)(=O)c4ccc(NCC5CCOCC5)c([N+](=O)[O-])c4)c(Oc4cnc5[nH]ccc5c4)c3)CC2)=C(c2ccc(Cl)cc2)C1 + C=CC(=O)N1CCN(c2nc(OCC3CCCN3C)nc3c2CCN(c2cccc4cccc(C)c24)C3)CC1CC#N"
targetdesc = "KRAS PDC tumor spheroids (HUVEC+MSC), viability"
datavalue = 100


Name the recorded viability, T/C for CC(C)NCC(C(=O)N1CCN(c2ncnc3c2C(C)CC3O)CC1)c1ccc(Cl)cc1 (stereo not given) + COc1cc2nc(C)nc(NC(C)c3cc(N)cc(C(F)(F)F)c3)c2cc1OC1CCOC1 .
91.5
